Test system: Canis familiaris
assay_text: 50% reduction in intraurethral pressure (IUP) in response to hypogastric nerve stimulation or agonist (phenylephrine or norepinephrine) administration in anesthetized dog
Assay type: functional
recorded_conditions: Canis lupus familiaris; read-out: ID50 (the source's name)
recorded_metric: ED50 (µg/kg)
// note: answer is a bare numeric in µg/kg

Need ED50 of COc1cc2nc(N3CCN(C(=O)c4ccco4)CC3)nc(N)c2cc1OC , thanks.
12

Need ED50 of COc1ccc(Cl)cc1N1CCN(CCCNc2nccc(C(N)=O)n2)CC1 , thanks.
5

Need ED50 of COc1cc2nc(N3CCN(C(=O)C4CCCO4)CC3)nc(N)c2cc1OC (configuration not stated) , thanks.
101

Need ED50 of CCOc1ccccc1OCCN[C@H](C)Cc1ccc(OC)c(S(N)(=O)=O)c1 (stereo in doubt; form 1) , thanks.
2

Need ED50 of COc1ccc(CCN2CCC(c3nc(COCC(F)(F)F)c(-c4ccc(F)cc4)o3)CC2)cc1S(N)(=O)=O , thanks.
13

Need ED50 of COc1ccccc1N1CCN(CCCNC(=O)c2cccc3c(=O)c(C)c(-c4ccccc4)oc23)CC1 , thanks.
4

Need ED50 of Cc1c[nH]c(=O)n(CCCN2CCN(c3ccc(F)cc3OCC(F)(F)F)CC2)c1=O , thanks.
5

###

recorded_metric: Ki (µM)
// note: answer is a bare numeric in µM

Form entry - test system: UniProtKB P31214; read-out: Ki; compound: CN1C(=O)CC[C@@H]2c3ccc(Cl)cc3CC[C@H]21 [BEXLOSTERIDE]
Sequence (P31214 whole entry): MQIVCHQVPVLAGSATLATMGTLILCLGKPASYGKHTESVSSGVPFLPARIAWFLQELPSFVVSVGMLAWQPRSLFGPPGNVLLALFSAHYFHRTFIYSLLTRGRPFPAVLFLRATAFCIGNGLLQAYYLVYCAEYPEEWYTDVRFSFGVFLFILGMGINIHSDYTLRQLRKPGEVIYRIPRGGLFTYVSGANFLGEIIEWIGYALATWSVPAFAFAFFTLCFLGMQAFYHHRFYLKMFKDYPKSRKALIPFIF
10

###

target_entity: Steroid 5-alpha-reductase (Rattus norvegicus, UniProt P24008+P31214)
assay_text: Apparent binding affinity on rat 5-alpha reductase isozyme
Assay type: protein assay
Please provide measured Ki for the entries that follow.
// note: answer is a bare numeric in nM

Form entry - test system: Steroid 5-alpha-reductase (Rattus norvegicus, UniProt P24008+P31214); read-out: Ki; compound: CC(C)N(C(=O)[C@H]1CCC2C3CC=C4C=C([PH](=O)O)CC[C@]4(C)C3CC[C@@]21C)C(C)C (some centres undefined)
160

Form entry - test system: Steroid 5-alpha-reductase (Rattus norvegicus, UniProt P24008+P31214); read-out: Ki; compound: CC(C)N(C(=O)[C@H]1CCC2C3CC=C4C=C(CO)CC[C@]4(C)C3CC[C@@]21C)C(C)C (some centres undefined)
5300

Form entry - test system: Steroid 5-alpha-reductase (Rattus norvegicus, UniProt P24008+P31214); read-out: Ki; compound: CC(C)N(C(=O)[C@H]1CC[C@H]2[C@@H]3CCC4C=C(C(=O)O)CC[C@]4(C)[C@H]3CC[C@]12C)C(C)C (some centres undefined)
70

Form entry - test system: Steroid 5-alpha-reductase (Rattus norvegicus, UniProt P24008+P31214); read-out: Ki; compound: CC(C)N(C(=O)[C@H]1CCC2C3CC=C4C=C(P(=O)(O)O)CC[C@]4(C)C3CC[C@@]21C)C(C)C (some centres undefined)
200

###

target_entity: 3-oxo-5-alpha-steroid 4-dehydrogenase 2 (Homo sapiens, UniProt P31213)
Sequence (P31213 whole entry): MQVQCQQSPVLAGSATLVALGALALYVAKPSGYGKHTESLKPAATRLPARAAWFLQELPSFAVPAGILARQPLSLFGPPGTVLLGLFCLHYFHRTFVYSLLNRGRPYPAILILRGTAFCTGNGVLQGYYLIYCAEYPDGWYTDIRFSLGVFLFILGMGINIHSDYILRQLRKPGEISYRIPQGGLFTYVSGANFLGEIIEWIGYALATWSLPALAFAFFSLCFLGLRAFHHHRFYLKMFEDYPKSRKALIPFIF
assay_text: Inhibition of human 5-alpha reductase 2 isozyme.
pIC50: −log10 of the molar value.
recorded_metric: pIC50

Need pIC50 of C[C@]12C=CC(=O)NC1CCC1C2CC[C@@]2(C)C1CC[C@@H]2C(=O)Nc1cccc(-c2ccccc2)c1 (stereo partly drawn) , thanks.
> 10.00

Need pIC50 of C[C@]12C=CC(=O)NC1CCC1C2CC[C@@]2(C)C1CC[C@@H]2C(=O)Nc1ccccc1C(F)(F)F (stereo partly drawn) , thanks.
> 10.00

Need pIC50 of C[C@]12C=CC(=O)NC1CCC1C2CC[C@@]2(C)C1CC[C@@H]2C(=O)Nc1ccccc1 (stereo partly drawn) , thanks.
> 10.00
